measurement-target: human CLDN6 fused to GFP, expressed on engineered HEK293T cells (human) (UniProt P56747)
assay-details: FACS, 293T clone with human CLDN6, 1.5 ug Ab
Give FACS signal for every item shown.

Example entries and their recorded answers appear below.
{"binder": "AB1-3 (antibody, V domains shown) VH: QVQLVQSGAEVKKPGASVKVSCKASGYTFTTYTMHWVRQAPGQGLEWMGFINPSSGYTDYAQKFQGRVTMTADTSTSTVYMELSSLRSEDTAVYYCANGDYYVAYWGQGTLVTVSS VL: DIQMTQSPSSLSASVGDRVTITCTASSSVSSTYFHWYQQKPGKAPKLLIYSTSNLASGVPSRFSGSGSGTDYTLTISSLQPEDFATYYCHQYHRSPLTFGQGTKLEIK", "measured-value": 142000}
{"binder": "AB1-8 (antibody, V domains shown) VH: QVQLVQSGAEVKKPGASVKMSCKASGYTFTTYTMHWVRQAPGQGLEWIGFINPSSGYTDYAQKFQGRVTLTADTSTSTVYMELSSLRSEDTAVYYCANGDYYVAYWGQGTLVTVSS VL: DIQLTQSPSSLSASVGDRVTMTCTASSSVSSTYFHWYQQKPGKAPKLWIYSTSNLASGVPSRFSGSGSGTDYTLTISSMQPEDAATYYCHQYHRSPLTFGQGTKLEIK", "measured-value": 210000}

Next binder, please.
FACS signal lookup needed for AB18-4 (antibody, V domains shown) VH: QVQLVQSGAEVKKPGASVKVSCKASGYSFTGYNMNWVRQAPGQGLEWMGNIDPYYGGSTYAQKFQGRVTMTVDTSTSTVYMELSSLRSEDTAVYYCARERSGYVFSAMDYWGQGTLVTVSS VL: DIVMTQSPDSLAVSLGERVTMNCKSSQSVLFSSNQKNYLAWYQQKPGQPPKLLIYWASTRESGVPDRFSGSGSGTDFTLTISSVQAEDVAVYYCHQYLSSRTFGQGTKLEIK , thanks.
54400
